- Test system: MS751 (Cervical Carcinoma)
- protocol-text: combination Emax (second highest fraction inhibited in the dose matrix, 72 h); higher = more inhibition; extreme values may be limits of the assay
result-type: combination Emax

QUERY: What measured combination Emax goes with Cc1cc2ncnn2cc1Nc1ncc2c(n1)n(C1CCOCC1)c(=O)n2C [AZD7648] + CCN(CCO)CCCOc1ccc2c(Nc3cc(CC(=O)Nc4cccc(F)c4)[nH]n3)ncnc2c1 [AZD2811] (first compound max 10 µM, 7x7, partner max 1 µM) ?
RESULT: 0.453

QUERY: Here is the next molecule: CC(=O)c1c(C)c2cnc(Nc3ccc(N4CCNCC4)cn3)nc2n(C2CCCC2)c1=O [Palbociclib] + Cn1cnc2c(F)c(Nc3ccc(Br)cc3Cl)c(C(=O)NOCCO)cc21 [Selumetinib] (first compound max 10 µM, 7x7, partner max 10 µM)
RESULT: 0.236

QUERY: Here is the next molecule: COc1cccc(OCCCN)c1-c1cc(Nc2cnc(C#N)cn2)n[nH]1 [Prexasertib] + C[C@@H]1COCCN1C2=NC(=NC(=C2)C3(CC3)[S@](=N)(=O)C)C4=C5C=CNC5=NC=C4 [AZD6738] (first compound max 1 µM, 7x7, partner max 10 µM)
RESULT: 0.383
